assay: Compound was tested on PMN membranes using LTD4 binding assays; type: functional, Homo sapiens
outcome measure: IC50

Value lookup for IC50; key = CC(C)(O)c1ccccc1CC[C@@H](SCC1(CC(=O)O)CC1)c1cccc(/C=C/c2ccc3sc(Cl)c(Cl)c3n2)c1
> 3 µM

* * *

Target: Cysteinyl leukotriene receptor 1 (Homo sapiens)
Sequence (Q9Y271 whole entry): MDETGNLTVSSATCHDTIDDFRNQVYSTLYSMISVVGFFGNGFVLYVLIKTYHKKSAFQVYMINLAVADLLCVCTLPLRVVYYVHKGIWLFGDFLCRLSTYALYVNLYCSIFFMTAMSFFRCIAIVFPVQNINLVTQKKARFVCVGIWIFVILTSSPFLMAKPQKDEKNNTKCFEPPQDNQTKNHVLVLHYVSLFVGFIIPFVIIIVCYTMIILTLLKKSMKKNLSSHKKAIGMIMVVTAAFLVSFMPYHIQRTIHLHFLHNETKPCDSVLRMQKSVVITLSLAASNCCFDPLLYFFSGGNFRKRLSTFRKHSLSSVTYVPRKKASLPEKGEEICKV
Test: Inhibition of binding of [ H]-LTD4 to DMSO differentiated U937 cell membranes
outcome measure: pIC50
Reminder that pIC50 is minus the log10 of a molar concentration.

Example compounds with recorded pIC50:
O=C(O)CC1(CS[C@H](CCc2ccccc2CO)c2cccc(/C=C/c3ccc4sc(Cl)c(Cl)c4n3)c2)CC1 | 9.14
O=C(O)CC1(CS[C@H](CCc2ccccc2C2(O)CCC2)c2cccc(/C=C/c3ccc4sc(Cl)c(Cl)c4n3)c2)CC1 | 8.98
O=C(O)CC1(CS[C@H](CCc2ccc(C3(O)CCC3)cc2)c2cccc(/C=C/c3ccc4sc(Cl)c(Cl)c4n3)c2)CC1 | 9.19

Value lookup for pIC50; key = CC(C)(O)c1ccccc1CC[C@@H](SCC1(CC(=O)O)CC1)c1cccc(C2CC2c2ccc3sc(Cl)c(Cl)c3n2)c1 (stereo not given in full)
7.80

Value lookup for pIC50; key = CC(C)(O)c1ccccc1CC[C@@H](SCC1(CC(=O)O)CC1)c1cccc(/C=C/c2ccc3scc(Cl)c3n2)c1
8.72

Value lookup for pIC50; key = CC(C)(O)c1ccccc1CC[C@@H](SCC1(CC(=O)O)CC1)c1cccc(OCc2ccc3sc(Cl)c(Cl)c3n2)c1
8.70

Value lookup for pIC50; key = CC(C)(O)c1ccccc1CC[C@@H](SCC1(CC(=O)O)CC1)c1cccc(/C=C/c2ccc3sccc3n2)c1
8.07

Value lookup for pIC50; key = O=C(O)CC1(CS[C@H](CCc2ccc(F)cc2)c2cccc(/C=C/c3ccc4sc(Cl)c(Cl)c4n3)c2)CC1
8.67

Value lookup for pIC50; key = CC(C)(O)c1ccccc1CC[C@@H](SCC1(CC(=O)O)CC1)c1cccc(/C=C/c2ccc3sc(Cl)c(Cl)c3n2)c1
9.26

* * *

experiment: Bioavailability in squirrel monkey (dose 5 mg/kg); assay type: ADME, organism-based, Saimiri sciureus; conditions: in vivo
Readings of bioavailability for the listed compounds
Express it in %; write the number only.

Example compounds with recorded bioavailability:
O=C(O)CC1(CS[C@H](CCc2ccccc2)c2cccc(/C=C/c3ccc4sc(Cl)c(Cl)c4n3)c2)CC1 | 13
O=C(O)CC1(CS[C@H](CCc2ccc(C3(O)CCC3)cc2)c2cccc(/C=C/c3ccc4sc(Cl)c(Cl)c4n3)c2)CC1 | 15
CC(C)(O)c1ccc(CC[C@@H](SCC2(CC(=O)O)CC2)c2cccc(/C=C/c3ccc4sc(Cl)c(Cl)c4n3)c2)cc1 | 35

Value lookup for bioavailability; key = CC(C)(O)c1ccccc1CC[C@@H](SCC1(CC(=O)O)CC1)c1cccc(/C=C/c2ccc3sc(Cl)c(Cl)c3n2)c1
29

Value lookup for bioavailability; key = O=C(O)CC1(CS[C@H](CCc2ccc(F)cc2)c2cccc(/C=C/c3ccc4sc(Cl)c(Cl)c4n3)c2)CC1
5

Value lookup for bioavailability; key = O=C(O)CC1(CS[C@H](CCc2ccccc2C(O)(C(F)(F)F)C(F)(F)F)c2cccc(/C=C/c3ccc4sc(Cl)c(Cl)c4n3)c2)CC1
2

Value lookup for bioavailability; key = O=C(O)CC1(CS[C@H](CCc2ccc(Br)cc2)c2cccc(/C=C/c3ccc4sc(Cl)c(Cl)c4n3)c2)CC1
3

* * *

test: Terminal half life of the compound.; format: ADME
outcome measure: half-life (min)
Express it in min; write the number only.

Example compounds with recorded half-life:
O=C(O)CC1(CS[C@H](CCc2ccccc2C(O)(C(F)(F)F)C(F)(F)F)c2cccc(/C=C/c3ccc4sc(Cl)c(Cl)c4n3)c2)CC1 | 660
O=C(O)CC1(CS[C@H](CCc2ccc(Br)cc2)c2cccc(/C=C/c3ccc4sc(Cl)c(Cl)c4n3)c2)CC1 | 306
CC(C)(O)c1ccccc1CC[C@@H](SCC1(CC(=O)O)CC1)c1cccc(/C=C/c2ccc3sc(Cl)c(Cl)c3n2)c1 | 252
O=C(O)CC1(CS[C@H](CCc2ccccc2)c2cccc(/C=C/c3ccc4sc(Cl)c(Cl)c4n3)c2)CC1 | 240
O=C(O)CC1(CS[C@H](CCc2ccccc2C(F)(F)F)c2cccc(/C=C/c3ccc4sc(Cl)c(Cl)c4n3)c2)CC1 | 366

Value lookup for half-life; key = O=C(O)CC1(CS[C@H](CCc2ccccc2Br)c2cccc(/C=C/c3ccc4sc(Cl)c(Cl)c4n3)c2)CC1
528

Value lookup for half-life; key = CC(C)(O)c1ccccc1CC[C@@H](SCC1(CC(=O)O)CC1)c1cccc(/C=C/c2ccc3sc(F)c(F)c3n2)c1
150

Value lookup for half-life; key = O=C(O)CC1(CS[C@H](CCc2ccc(C3(O)CCC3)cc2)c2cccc(/C=C/c3ccc4sc(Cl)c(Cl)c4n3)c2)CC1
120

* * *

Readings of IC50 for the listed compounds
target: Cysteinyl leukotriene receptor 1 (Cavia porcellus); test: Inhibition of binding of [3H]LTD4 to guinea pig lung membrane
Express it in nM; write the number only.

O=C(O)CC1(CS[C@H](CCc2ccc(C(F)(F)F)cc2)c2cccc(/C=C/c3ccc4sc(Cl)c(Cl)c4n3)c2)CC1 | 3.84

Value lookup for IC50; key = O=C(O)CC1(CS[C@H](CCc2ccccc2)c2cccc(/C=C/c3ccc4sc(Cl)c(Cl)c4n3)c2)CC1
0.34

Value lookup for IC50; key = O=C(O)CC1(CS[C@H](CCc2ccccc2C2(O)CCC2)c2cccc(/C=C/c3ccc4sc(Cl)c(Cl)c4n3)c2)CC1
0.74

Value lookup for IC50; key = CC(C)(O)c1ccccc1CC[C@@H](SCC1(CC(=O)O)CC1)c1cccc(/C=C/c2ccc3scc(Cl)c3n2)c1
0.54

Value lookup for IC50; key = O=C(O)CC1(CS[C@H](CCc2ccc(C3(O)CCC3)cc2)c2cccc(/C=C/c3ccc4sc(Cl)c(Cl)c4n3)c2)CC1
0.58

Value lookup for IC50; key = O=C(O)CC1(CS[C@H](CCc2ccc(F)cc2)c2cccc(/C=C/c3ccc4sc(Cl)c(Cl)c4n3)c2)CC1
1.09

Value lookup for IC50; key = O=C(O)CC1(CS[C@H](CCc2ccc(Br)cc2)c2cccc(/C=C/c3ccc4sc(Cl)c(Cl)c4n3)c2)CC1
1.95

* * *

molecular target: Cysteinyl leukotriene receptor 1 (Cavia porcellus); assay: Inhibition of binding of [3H]LTD4 to guinea pig lung membrane
Could you please classify the records by IC50 using these ranges: b0 = under 0.5 nM, b1 = from 0.5 nM up to 3 nM, b2 = 3 nM and over

Some solved entries appear below for comparison.
CC(C)(O)c1ccccc1CC[C@@H](SCC1(CC(=O)O)CC1)c1cccc(OCc2ccc3sc(Cl)c(Cl)c3n2)c1 | b0
O=C(O)CC1(CS[C@H](CCc2ccccc2C(O)(C(F)(F)F)C(F)(F)F)c2cccc(/C=C/c3ccc4sc(Cl)c(Cl)c4n3)c2)CC1 | b2
CC(C)(O)c1ccccc1CC[C@@H](SCC1(CC(=O)O)CC1)c1cccc(/C=C/c2ccc3sccc3n2)c1 | b1
O=C(O)CC1(CS[C@H](CCc2ccccc2CO)c2cccc(/C=C/c3ccc4sc(Cl)c(Cl)c4n3)c2)CC1 | b0
CC(C)(O)c1ccccc1CC[C@@H](SCC1(CC(=O)O)CC1)c1cccc(/C=C/c2ccc3sc(Cl)c(Cl)c3n2)c1 | b1
CC(C)(O)c1ccccc1CC[C@@H](SCC1(CC(=O)O)CC1)c1cccc(C2CC2c2ccc3sc(Cl)c(Cl)c3n2)c1 (stereo not given in full) | b2
CC(C)(O)c1ccccc1CC[C@@H](SCC1(CC(=O)O)CC1)c1cccc(COc2ccc3sc(Cl)c(Cl)c3n2)c1 | b2
O=C(O)CC1(CS[C@H](CCc2cccc(C3(O)CCC3)c2)c2cccc(/C=C/c3ccc4sc(Cl)c(Cl)c4n3)c2)CC1 | b0

Please classify: CC(C)(O)c1ccc(CC[C@@H](SCC2(CC(=O)O)CC2)c2cccc(/C=C/c3ccc4sc(Cl)c(Cl)c4n3)c2)cc1
b1

Please classify: O=C(O)CC1(CS[C@H](CCc2ccccc2Br)c2cccc(/C=C/c3ccc4sc(Cl)c(Cl)c4n3)c2)CC1
b1
